Target: huPD1-ECD_Fc-knob/hole (P1AD9704) (human)
Test: SPR, 25C
pKd: −log10 of the molar value.
Parameter: pKd

Binder	Parameter	Quantitative Result
P1AI0357 PD1-1030-VH_I58T (antibody, V domains shown) VH: EVQLLESGGGLVQPGGSLRLSCAASGFSFSSYTMSWVRQAPGKGLEWVATISGGGRDTYYPDSVKGRFTISRDNSKNTLYLQMNSLRAEDTAVYYCVLLTGRVYFALDSWGQGTLVTVSS VL: DIVMTQSPDSLAVSLGERATINCKASESVDTSDNSFIHWYQQKPGQSPKLLIYRSSTLESGVPDRFSGSGSGTDFTLTISSLQAEDVAVYYCQQNYDVPWTFGQGTKVEIKR	pKd	9.70
P1AI0356 PD1-1030-VH_I58L_D62E (antibody, V domains shown) VH: EVQLLESGGGLVQPGGSLRLSCAASGFSFSSYTMSWVRQAPGKGLEWVATISGGGRDLYYPESVKGRFTISRDNSKNTLYLQMNSLRAEDTAVYYCVLLTGRVYFALDSWGQGTLVTVSS VL: DIVMTQSPDSLAVSLGERATINCKASESVDTSDNSFIHWYQQKPGQSPKLLIYRSSTLESGVPDRFSGSGSGTDFTLTISSLQAEDVAVYYCQQNYDVPWTFGQGTKVEIKR	pKd	9.70
